- Test system: KM-20L2
- experiment-description: NCI tumour cell line growth inhibition, 48 h
Activity calls are given as the source filed them. Cut-off read from the data, not from the text of the source: active = GI50 up to about 1.1 µM and inactive = higher. Starred links: 1 amine or outer side, 2 acyl side, 3 side chain; linkers in the order of their positions; H or OH if unused. Non-standard residues stand in square brackets, D forms with d. Residues, ends and D or L forms follow the SMILES beside them. ξ: configuration not given here. X24 = O=C(C(CC(O)CO)O[*:1])[*:2]; Ile(3ξ) = CCC(C)[C@H](N)C(=O)O; NMeV = CN[C@H](C(=O)O)C(C)C; NMeA = CN[C@@H](C)C(=O)O; βAla = NCCC(=O)O
measure: GI50

- compound: "CCOC(=O)NC(=O)c1cn(CCSCCOC(=O)NCCCCCCNC(=O)OCCSCCn2cc(C(=O)NC(=O)OCC)c(=O)n(C)c2=O)c(=O)n(C)c1=O"
  assayed-target: "KM-20L2"
  measure: "GI50"
  reading: "39.7 µM (inactive)"
- compound: "O=C(/C=C\\c1cccc2ccccc12)c1cccs1"
  assayed-target: "KM-20L2"
  measure: "GI50"
  reading: "10.7 µM (inactive)"
- compound: "CCC(C)[C@@H]1NC(=O)[C@@H]2CCCN2C(=O)C(CC(O)CO)OC(=O)CCNC(=O)[C@H](C)N(C)C(=O)[C@H](C(C)C)N(C)C1=O (some centres undefined) (cyclo([Ile(3ξ)][NMeV][NMeA][βAla][X24]P))"
  assayed-target: "KM-20L2"
  measure: "GI50"
  reading: "> 100 µM (inactive)"
- compound: "COc1cc2c3c(c1OC)-c1ccccc1C(C(O)c1ccccc1)C3N(C)CC2 (centres undefined)"
  assayed-target: "KM-20L2"
  measure: "GI50"
  reading: "20.1 µM (inactive)"

###

- Tested on: COLO 205
- experiment-description: NCI tumour cell line growth inhibition, 48 h
Activity calls are given as the source filed them. No stated cut-off is given here; in the data, active = GI50 up to about 1.1 µM and inactive = higher.
Outcomes: class 1 for active, class 0 for inactive

- compound: "Clc1ccc(-c2nc(-c3ccc(Cl)cc3)[s+]s2)cc1"
  assigned-class: "class 0"
- compound: "CC1(C)CCC[C@]2(C)[C@@H]1CC[C@@]13O[C@@H]1C1=C(CO)C(=O)OC1=C[C@@H]23"
  assigned-class: "class 0"
- compound: "CC(C)(C)/N=c1/n(C(C)(C)C)oc(=O)n1-c1ccccc1"
  assigned-class: "class 0"
- compound: "CC(C)C(C/C=C1/CC(CO)(COC(=O)C(C)(C)C)OC1=O)C(C)C (stereo not given)"
  assigned-class: "class 1"
- compound: "CCOC(=O)c1ccc2c(c1)nc1n2C(c2c(F)cccc2F)SC1 (stereo not given)"
  assigned-class: "class 0"

###

- System: MOLT-4
- experiment-description: NCI tumour cell line growth inhibition, 48 h
Activity calls are given as the source filed them. Cut-off read from the data, not from the text of the source: active = GI50 up to about 1.1 µM and inactive = higher.

- molecule: "COc1cc2c(cc1OCCCCCCCCN1C(=O)c3cccc4cccc(c34)C1=O)N=C[C@@H]1CCCN1C2=O"
  GI50: "3.48 µM (inactive)"
- molecule: "CCOC1=CP(=O)(OCC)CC(C)=C1Cl (centres undefined)"
  GI50: "> 100 µM (inactive)"
- molecule: "CCCCCCC(O)C(=O)OC1C2C(CC1(C)C)C(O)C13OC1C(O)C1(CO1)[C@@]23C (some centres undefined)"
  GI50: "16.1 µM (inactive)"
- molecule: "C#CCn1c(I)cc2c(c1=O)COC(=O)[C@]2(O)CC"
  GI50: "> 100 µM (inactive)"
- molecule: "COc1ccc(-[n+]2nc(S(=O)(=O)O)c(/C=C/c3ccc(N(C)C)cc3)cc2C#N)cc1"
  GI50: "> 100 µM (inactive)"
- molecule: "C[n+]1c(-c2ccc(/C=C/C=N\\NC(=O)c3ccc(C(=O)N/N=C\\C=C\\c4ccc(-c5cn6ccccc6[n+]5C)cc4)cc3)cc2)cn2ccccc21"
  GI50: "43.6 µM (inactive)"
- molecule: "O=C(CC(=O)n1nc(-c2ccccc2)c(/N=N/c2ccc(Cl)cc2)c1-c1ccccc1)Nc1ccc(Cl)cc1"
  GI50: "> 100 µM (inactive)"
- molecule: "COc1c(C)c2c(c(=O)c3c(C)cccc3n2C)c2c1c(=O)c1c(C)cccc1n2C"
  GI50: "> 10 µM (inactive)"
- molecule: "COc1cccc2cc(C(=O)NC34CC5CC(CC(C5)C3)C4)c(=N)oc12"
  GI50: "1.35 µM (inactive)"

These entries and their values trace back to ChEMBL document CHEMBL1201862.
